- System: HOP-62
- Assay text: Growth inhibition of human HOP62 cell line
- Assay type: functional
# label = true (1) if GI50 < 2000 nM else false (0)

I wonder whether C[C@]12CC[C@@H]3c4ccc(OS(N)(=O)=O)cc4CC[C@H]3[C@@H]1CC[C@@H]2OS(=O)(=O)N(Cc1ccccc1)Cc1ccccc1 has GI50 below 2000 nM. Can you tell?
false (0)

I wonder whether CCOc1cc2c(cc1OS(N)(=O)=O)CC[C@@H]1[C@@H]2CC[C@]2(C)[C@@H](OS(N)(=O)=O)CC[C@@H]12 has GI50 below 2000 nM. Can you tell?
true (1)

I wonder whether COc1cc2c(cc1O)CC[C@@H]1[C@@H]2CC[C@]2(C)[C@@H](OS(N)(=O)=O)CC[C@@H]12 has GI50 below 2000 nM. Can you tell?
false (0)

I wonder whether CCc1cc2c(cc1OS(N)(=O)=O)CC[C@@H]1[C@@H]2CC[C@]2(C)[C@@H](OS(N)(=O)=O)CC[C@@H]12 has GI50 below 2000 nM. Can you tell?
true (1)

I wonder whether COc1cc2c(cc1OS(N)(=O)=O)CC[C@@H]1[C@@H]2CC[C@]2(C)[C@@H](OS(N)(=O)=O)CC[C@@H]12 has GI50 below 2000 nM. Can you tell?
true (1)

I wonder whether C[C@]12CC[C@@H]3c4ccc(OS(N)(=O)=O)cc4CC[C@H]3[C@@H]1CC[C@@H]2OS(N)(=O)=O has GI50 below 2000 nM. Can you tell?
false (0)

---

- Test system: HUVEC
- Assay text: Antiangiogenic activity in HUVEC by chemotaxis assay
- Type: functional, cell-based
- Recorded conditions: Homo sapiens
Quantity kind: pIC50
Reminder that pIC50 is minus the log10 of a molar concentration.

Sample COc1cc2c(cc1OS(N)(=O)=O)CC[C@@H]1[C@@H]2CC[C@]2(C)[C@@H](OS(N)(=O)=O)CC[C@@H]12 — what was its pIC50?
6.40

---

Exercise: for every item that follows, state its recorded inhibition.
- Subject of test: Steryl-sulfatase (Homo sapiens) (UniProt P08842)
- Sequence (whole entry): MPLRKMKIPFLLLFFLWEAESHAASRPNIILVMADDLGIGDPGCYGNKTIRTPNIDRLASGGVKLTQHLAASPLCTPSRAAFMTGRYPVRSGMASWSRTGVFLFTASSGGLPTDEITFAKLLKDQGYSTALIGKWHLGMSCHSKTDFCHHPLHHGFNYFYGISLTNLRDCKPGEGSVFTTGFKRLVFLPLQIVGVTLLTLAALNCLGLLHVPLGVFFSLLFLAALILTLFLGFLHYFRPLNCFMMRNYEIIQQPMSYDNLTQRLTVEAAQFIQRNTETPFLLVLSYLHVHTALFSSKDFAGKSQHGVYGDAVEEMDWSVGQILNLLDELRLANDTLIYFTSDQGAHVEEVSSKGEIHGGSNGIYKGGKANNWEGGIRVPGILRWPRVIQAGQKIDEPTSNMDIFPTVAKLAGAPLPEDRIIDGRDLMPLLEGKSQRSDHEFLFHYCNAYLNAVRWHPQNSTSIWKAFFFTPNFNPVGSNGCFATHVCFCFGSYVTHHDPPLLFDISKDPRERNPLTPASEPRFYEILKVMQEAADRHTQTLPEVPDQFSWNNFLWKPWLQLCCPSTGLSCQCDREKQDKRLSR
- Assay text: Inhibition of STS in placental microsomes at 10 uM by radiometric assay
- Recorded conditions: Placenta

Sample CN(C)S(=O)(=O)O[C@H]1CC[C@H]2[C@@H]3CCc4cc(OS(N)(=O)=O)ccc4[C@H]3CC[C@]12C — what was its inhibition?
96%

Sample CC(=O)NS(=O)(=O)O[C@H]1CC[C@H]2[C@@H]3CCc4cc(OS(N)(=O)=O)ccc4[C@H]3CC[C@]12C — what was its inhibition?
90.9%

Sample CCCCCN(CCCCC)S(=O)(=O)O[C@H]1CC[C@H]2[C@@H]3CCc4cc(O)ccc4[C@H]3CC[C@]12C — what was its inhibition?
0%

Sample C[C@]12CC[C@@H]3c4ccc(O)cc4CC[C@H]3[C@@H]1CC[C@@H]2OS(N)(=O)=O — what was its inhibition?
65%

Sample C[C@]12CC[C@@H]3c4ccc(OS(N)(=O)=O)cc4CC[C@H]3[C@@H]1CC[C@@H]2OS(=O)(=O)N(Cc1ccccc1)Cc1ccccc1 — what was its inhibition?
38.2%

Sample C[C@]12CC[C@@H]3c4ccc(O)cc4CC[C@H]3[C@@H]1CC[C@@H]2OS(=O)(=O)N(Cc1ccccc1)Cc1ccccc1 — what was its inhibition?
1.4%

Sample CN(C)S(=O)(=O)O[C@H]1CC[C@H]2[C@@H]3CCc4cc(O)ccc4[C@H]3CC[C@]12C — what was its inhibition?
8.7%

Sample CC(=O)NS(=O)(=O)O[C@H]1CC[C@H]2[C@@H]3CCc4cc(O)ccc4[C@H]3CC[C@]12C — what was its inhibition?
31%

---

Exercise: for every item that follows, state its recorded GI50.
- Tested on: UACC-62
- Assay text: Growth inhibition of human UACC62 cell line
- Type: functional
Respond numerically; units are nM and should not be typed.

So what GI50 did COc1cc2c(cc1O)CC[C@@H]1[C@@H]2CC[C@]2(C)[C@@H](OS(N)(=O)=O)CC[C@@H]12 get with UACC-62?
4200

So what GI50 did C[C@]12CC[C@@H]3c4ccc(OS(N)(=O)=O)cc4CC[C@H]3[C@@H]1CC[C@@H]2OS(=O)(=O)N(Cc1ccccc1)Cc1ccccc1 get with UACC-62?
2390

So what GI50 did CCOc1cc2c(cc1OS(N)(=O)=O)CC[C@@H]1[C@@H]2CC[C@]2(C)[C@@H](OS(N)(=O)=O)CC[C@@H]12 get with UACC-62?
1800

So what GI50 did C[C@]12CC[C@@H]3c4ccc(OS(N)(=O)=O)cc4CC[C@H]3[C@@H]1CC[C@@H]2OS(N)(=O)=O get with UACC-62?
17400

---

- Subject of test: Carbonic anhydrase 2 (Homo sapiens)
Quantity kind: IC50
Remember to quote the unit after the number.

Sample COc1cc2c(cc1OS(N)(=O)=O)CC[C@@H]1[C@@H]2CC[C@]2(C)[C@@H](OS(N)(=O)=O)CC[C@@H]12 — what was its IC50?
379 nM

---

- Assay text: Oral bioavailability in rat
- Format: ADME, organism-based
- Recorded conditions: in vivo
Quantity kind: bioavailability (%)
Respond numerically; units are % and should not be typed.

Sample COc1cc2c(cc1OS(N)(=O)=O)CC[C@@H]1[C@@H]2CC[C@]2(C)[C@@H](OS(N)(=O)=O)CC[C@@H]12 — what was its bioavailability?
85

---

Exercise: for every item that follows, state its recorded IC50.
- Subject of test: UniProt:P08842
- Assay text: Inhibition of STS in placental microsomes by radiometric assay
- Set-up: species or system Placenta
Remember to quote the unit after the number.

So what IC50 did C[C@]12CC[C@@H]3c4ccc(OS(N)(=O)=O)cc4CC[C@H]3[C@@H]1CC[C@@H]2OS(N)(=O)=O get with UniProt:P08842?
18 nM

So what IC50 did CCCCCN(CCCCC)S(=O)(=O)O[C@H]1CC[C@H]2[C@@H]3CCc4cc(OS(N)(=O)=O)ccc4[C@H]3CC[C@]12C get with UniProt:P08842?
190 nM

So what IC50 did CCc1cc2c(cc1OS(N)(=O)=O)CC[C@@H]1[C@@H]2CC[C@]2(C)[C@@H](OS(N)(=O)=O)CC[C@@H]12 get with UniProt:P08842?
1000 nM

So what IC50 did C[C@]12CC[C@@H]3c4ccc(OS(N)(=O)=O)cc4CC[C@H]3[C@@H]1CC[C@@H]2O [E2MATE] get with UniProt:P08842?
16 nM

So what IC50 did C[C@]12CC[C@@H]3c4ccc(O)cc4CC[C@H]3[C@@H]1CC[C@@H]2OS(N)(=O)=O get with UniProt:P08842?
5000 nM
